TESTED_SYSTEM: JAK1 (Homo sapiens (Human), UniProt P23458)
ASSAY_NAME: Enzyme assay (Assay Example^a 1), JAK1
Format: biochemical
CONDITION_SUMMARY: ATP 100 μM
MEASUREMENT_NAME: log10(IC50) (log10 of the value in µM)

COMPOUND	log10(IC50)
N#CCCN[C@H]1CC[C@H](c2nnn3cnc4[nH]ccc4c23)CC1 [394b]	-1.82
FC(F)(Br)CNC[C@H]1CC[C@H](c2nnn3cnc4[nH]ccc4c23)CC1	-2.89
CS(=O)(=O)NC[C@H]1CC[C@H](c2nnn3cnc4[nH]ccc4c23)CC1	-3.80
N#CCCN1CCN(C[C@H]2CC[C@H](c3nnn4cnc5[nH]ccc5c34)CC2)CC1	-2.10
N#C[C@H]1CC[C@H](c2nnn3cnc4[nH]ccc4c23)CC1	-2.07
OC1(C(F)(F)F)CN(C[C@H]2CC[C@H](c3nnn4cnc5[nH]ccc5c34)CC2)C1	-2.60
O=C(N[C@@H]1CCN(C[C@H]2CC[C@H](c3nnn4cnc5[nH]ccc5c34)CC2)C1)C(F)(F)F	-2.12
OC[C@H]1CCCN1C[C@H]1CC[C@H](c2nnn3cnc4[nH]ccc4c23)CC1	-1.34
O=C1COc2cc(NC[C@H]3CC[C@H](c4nnn5cnc6[nH]ccc6c45)CC3)ccc2N1	-2.34

###

Below: a set of entries, each annotated with reported IC50.
TESTED_SYSTEM: JAK3 (Homo sapiens (Human), UniProt P52333)
Sequence (P52333 whole entry): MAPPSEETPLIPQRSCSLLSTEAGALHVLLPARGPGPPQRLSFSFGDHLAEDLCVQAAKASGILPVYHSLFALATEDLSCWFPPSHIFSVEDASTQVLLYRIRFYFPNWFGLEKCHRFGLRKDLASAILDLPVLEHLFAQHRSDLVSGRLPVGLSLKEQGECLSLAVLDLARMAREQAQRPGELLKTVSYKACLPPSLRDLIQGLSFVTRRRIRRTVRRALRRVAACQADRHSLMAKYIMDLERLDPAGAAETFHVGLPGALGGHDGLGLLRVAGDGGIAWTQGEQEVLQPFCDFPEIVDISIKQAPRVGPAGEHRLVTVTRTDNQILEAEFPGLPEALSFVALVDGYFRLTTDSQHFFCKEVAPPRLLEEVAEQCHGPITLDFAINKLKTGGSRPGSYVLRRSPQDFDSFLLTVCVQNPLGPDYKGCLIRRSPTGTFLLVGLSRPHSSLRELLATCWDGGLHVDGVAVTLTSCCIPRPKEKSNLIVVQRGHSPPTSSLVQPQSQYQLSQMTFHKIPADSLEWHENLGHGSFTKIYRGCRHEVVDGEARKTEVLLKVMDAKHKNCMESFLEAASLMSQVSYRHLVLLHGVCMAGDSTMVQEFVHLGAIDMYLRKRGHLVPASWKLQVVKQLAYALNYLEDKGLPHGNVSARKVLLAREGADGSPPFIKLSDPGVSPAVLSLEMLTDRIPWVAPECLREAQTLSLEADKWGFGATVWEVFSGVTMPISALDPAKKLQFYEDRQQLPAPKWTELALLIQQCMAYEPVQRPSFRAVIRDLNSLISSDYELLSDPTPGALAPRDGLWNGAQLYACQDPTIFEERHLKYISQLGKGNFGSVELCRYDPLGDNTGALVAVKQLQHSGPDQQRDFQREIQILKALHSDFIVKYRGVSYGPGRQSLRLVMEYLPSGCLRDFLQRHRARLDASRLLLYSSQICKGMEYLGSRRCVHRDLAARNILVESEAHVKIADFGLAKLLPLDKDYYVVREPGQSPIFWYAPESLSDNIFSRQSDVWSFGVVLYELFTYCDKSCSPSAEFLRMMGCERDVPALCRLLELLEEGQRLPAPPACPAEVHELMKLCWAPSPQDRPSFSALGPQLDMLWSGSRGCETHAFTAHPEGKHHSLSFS
ASSAY_NAME: Enzyme assay (Assay Example^a 1), JAK3
Assay type: biochemical
CONDITION_SUMMARY: ATP 100 μM

CPD_SMILES	TESTED_SYSTEM	IC50
c1cc2c(ncn3nnc(C4CCN(Cc5cnc(N6CCOCC6)s5)CC4)c23)[nH]1	JAK3 (Homo sapiens (Human), UniProt P52333)	> 1 µM
CC(=O)N[C@@H]1CCN(C[C@H]2CC[C@H](c3nnn4cnc5[nH]ccc5c34)CC2)C1	JAK3 (Homo sapiens (Human), UniProt P52333)	> 1 µM
c1cc2c(ncn3nnc([C@H]4CC[C@H](CN5CCC(N6CCOCC6)CC5)CC4)c23)[nH]1	JAK3 (Homo sapiens (Human), UniProt P52333)	> 1 µM
FC(F)Oc1ccc(CN2CCC(c3nnn4cnc5[nH]ccc5c34)CC2)cc1	JAK3 (Homo sapiens (Human), UniProt P52333)	0.62 µM

###

Below: a set of entries, each annotated with reported IC50.
TESTED_SYSTEM: JAK1 (Homo sapiens (Human), UniProt P23458)
ASSAY_NAME: Enzyme assay (Assay Example^a 1), JAK1
Type: biochemical
CONDITION_SUMMARY: ATP 100 μM; Table^a 154
Where a name gives a salt, the structure may show the parent alone.

COMPOUND	IC50, µM
Cc1cc(NC(=O)N2CCCC(c3nnn4cnc5[nH]ccc5c34)C2)sn1 (racemic) [compound 21]	0.015
c1nc(CCNC[C@H]2CC[C@H](c3nnn4cnc5[nH]ccc5c34)CC2)c[nH]1 [compound 192, hydrochloride]	0.0039
FC(F)(F)c1ccc(CN2CCCC(c3nnn4cnc5[nH]ccc5c34)C2)cc1 (racemic) [compound 23]	0.55
Fc1ccc(CN2CCC(c3nnn4cnc5[nH]ccc5c34)CC2)c(Cl)c1 [compound 165]	0.0044
c1ccc(CCNC[C@H]2CC[C@H](c3nnn4cnc5[nH]ccc5c34)CC2)cc1 [compound 174]	0.0057
Clc1ccc(CCNC[C@H]2CC[C@H](c3nnn4cnc5[nH]ccc5c34)CC2)cc1 [compound 178]	0.0026
Clc1cc(CN2CCC(c3nnn4cnc5[nH]ccc5c34)CC2)ccn1 [compound 160]	0.0053
Fc1cnccc1CN1CCC(c2nnn3cnc4[nH]ccc4c23)CC1 [compound 161]	0.0034
Fc1cc(CN2CCC(c3nnn4cnc5[nH]ccc5c34)CC2)ccc1C(F)(F)F [compound 167]	0.0031
c1cc2c(ncn3nnc([C@H]4CC[C@@H](NN5CCOCC5)CC4)c23)[nH]1 [139a]	0.26
O=C(NCc1ccc(F)cc1)[C@H]1CC[C@H](c2nnn3cnc4[nH]ccc4c23)CC1 [compound 207]	0.009
OC(CNC[C@H]1CC[C@H](c2nnn3cnc4[nH]ccc4c23)CC1)(c1ccccc1)C(F)(F)F (mixture of isomers) [compound 172]	0.013
FC(F)(F)c1ccc(CN[C@H]2CC[C@H](c3nnn4cnc5[nH]ccc5c34)CC2)cc1 [138b]	0.0043
Cc1cnc(CNC[C@H]2CC[C@H](c3nnn4cnc5[nH]ccc5c34)CC2)cn1 [compound 183]	0.0061
Clc1ccc(NC[C@H]2CC[C@H](c3nnn4cnc5[nH]ccc5c34)CC2)cc1 [compound 176]	0.034
OCCOc1ccc(CN2CCC(c3nnn4cnc5[nH]ccc5c34)CC2)cc1 [compound 168]	0.084
Clc1ccc(CCN[C@H]2CC[C@H](c3nnn4cnc5[nH]ccc5c34)CC2)cc1 [198b]	0.0025
c1ccc(CN[C@H]2CC[C@H](c3nnn4cnc5[nH]ccc5c34)CC2)cc1 [194b]	0.0084

###

TESTED_SYSTEM: Tyk2 (Homo sapiens (Human))
Sequence (P29597 whole entry): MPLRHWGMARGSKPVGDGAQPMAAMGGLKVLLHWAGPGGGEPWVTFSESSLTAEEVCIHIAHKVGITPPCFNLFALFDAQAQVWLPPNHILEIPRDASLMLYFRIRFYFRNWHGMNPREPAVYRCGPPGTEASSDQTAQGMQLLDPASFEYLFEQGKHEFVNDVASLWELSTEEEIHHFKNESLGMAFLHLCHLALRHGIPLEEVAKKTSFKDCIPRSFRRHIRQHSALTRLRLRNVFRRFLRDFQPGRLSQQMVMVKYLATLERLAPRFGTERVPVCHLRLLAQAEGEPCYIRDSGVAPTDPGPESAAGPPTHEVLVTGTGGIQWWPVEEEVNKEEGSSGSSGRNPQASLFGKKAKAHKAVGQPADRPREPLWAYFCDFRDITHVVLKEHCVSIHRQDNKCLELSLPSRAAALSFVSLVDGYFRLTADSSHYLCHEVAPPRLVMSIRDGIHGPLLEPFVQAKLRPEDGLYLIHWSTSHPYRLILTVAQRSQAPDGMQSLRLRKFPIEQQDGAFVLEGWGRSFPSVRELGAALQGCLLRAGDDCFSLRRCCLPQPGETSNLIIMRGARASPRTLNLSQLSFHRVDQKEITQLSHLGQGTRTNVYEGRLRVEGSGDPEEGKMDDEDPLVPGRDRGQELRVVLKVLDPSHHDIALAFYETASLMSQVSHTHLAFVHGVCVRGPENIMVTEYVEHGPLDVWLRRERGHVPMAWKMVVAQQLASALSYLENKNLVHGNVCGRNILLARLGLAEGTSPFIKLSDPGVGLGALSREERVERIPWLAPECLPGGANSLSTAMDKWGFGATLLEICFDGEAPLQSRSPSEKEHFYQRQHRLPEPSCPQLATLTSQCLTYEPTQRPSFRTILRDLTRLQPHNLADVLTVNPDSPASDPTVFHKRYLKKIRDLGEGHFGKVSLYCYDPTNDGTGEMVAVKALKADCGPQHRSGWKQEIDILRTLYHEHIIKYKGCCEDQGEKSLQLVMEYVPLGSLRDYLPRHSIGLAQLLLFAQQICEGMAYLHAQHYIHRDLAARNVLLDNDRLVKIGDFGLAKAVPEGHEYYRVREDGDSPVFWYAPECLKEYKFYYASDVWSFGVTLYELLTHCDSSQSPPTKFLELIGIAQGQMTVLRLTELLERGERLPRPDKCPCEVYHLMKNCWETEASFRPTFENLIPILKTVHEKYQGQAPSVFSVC
ASSAY_NAME: Enzyme assay (Assay Example^a 1), Tyk2
Assay type: biochemical
CONDITION_SUMMARY: ATP 100 μM; Table^a 154
Below: a set of entries, each annotated with reported IC50.

COMPOUND	TESTED_SYSTEM	IC50
c1cc2c(ncn3nnc(C4CCCNC4)c23)[nH]1 (racemic) [compound 15]	Tyk2 (Homo sapiens (Human))	> 1 µM
CC(C)(C)OC(=O)NCCN1CCC(c2nnn3cnc4[nH]ccc4c23)CC1 [compound 171]	Tyk2 (Homo sapiens (Human))	> 1 µM
FC(F)C(F)(F)Oc1ccc(CN2CCC(c3nnn4cnc5[nH]ccc5c34)CC2)cc1 [compound 169]	Tyk2 (Homo sapiens (Human))	> 1 µM

###

TESTED_SYSTEM: UniProt O60674
ASSAY_NAME: Enzyme assay (Assay Example^a 1), JAK2
Format: biochemical
CONDITION_SUMMARY: ATP 100 μM
Response field label: string, one of rule met (IC50 strictly below 0.09 µM) or rule not met.

COMPOUND	ANSWER_LABEL
N#CCN(CC1CC1)C[C@H]1CC[C@H](c2nnn3cnc4[nH]ccc4c23)CC1 [compound 414]	rule not met
FC(F)(F)COC1CN(C[C@H]2CC[C@H](c3nnn4cnc5[nH]ccc5c34)CC2)C1 [compound 421]	rule not met
FC(F)CNC[C@H]1CC[C@H](c2nnn3cnc4[nH]ccc4c23)CC1 [compound 255]	rule met
C(=C\c1ccco1)/CN1CCC(c2nnn3cnc4[nH]ccc4c23)CC1 [compound 215]	rule not met
OC[C@@H]1CCCN1C[C@H]1CC[C@H](c2nnn3cnc4[nH]ccc4c23)CC1 [compound 266]	rule not met
N#CC=C1CCC(c2nnn3cnc4[nH]ccc4c23)CC1 (stereo not drawn) [compound 434]	rule met
c1cc2c(ncn3nnc(C4CCN(Cc5cocn5)CC4)c23)[nH]1 [compound 219]	rule met
C=C1CCC(c2nnn3cnc4[nH]ccc4c23)CC1 [compound 433]	rule met
O=C(NCC(O)(c1ccccc1)C(F)(F)F)[C@H]1CC[C@H](c2nnn3cnc4[nH]ccc4c23)CC1 (stereo partly drawn) [compound 346]	rule met
N#CC[C@H]1CC[C@@H](c2nnn3cnc4[nH]ccc4c23)CC1 [435a]	rule met
OC(CNC[C@H]1CC[C@H](c2nnn3cnc4[nH]ccc4c23)CC1)C(F)(F)F (stereo partly drawn) [compound 343]	rule met

###

Below: a set of entries, each annotated with reported IC50.
TESTED_SYSTEM: JAK3 (Homo sapiens (Human), UniProt P52333)
ASSAY_NAME: Enzyme assay (Assay Example^a 1), JAK3
Assay type: biochemical
CONDITION_SUMMARY: ATP 100 μM

COMPOUND	CMP	IC50 [µM]
FC1(F)Oc2cccc(CN3CCC(c4nnn5cnc6[nH]ccc6c45)CC3)c2O1	>	1
Cc1ccc(CN2CCC(c3nnn4cnc5[nH]ccc5c34)CC2)s1	=	0.45
FC(F)(F)C(F)(F)CN[C@H]1CC[C@H](c2nnn3cnc4[nH]ccc4c23)CC1 [383b]	=	0.5
N#Cc1cc(NC[C@H]2CC[C@H](c3nnn4cnc5[nH]ccc5c34)CC2)ccc1F	>	1
O=C1COc2ccc(CN3CCC(c4nnn5cnc6[nH]ccc6c45)CC3)cc2N1	>	1
O=C(O)C1CN(C[C@H]2CC[C@H](c3nnn4cnc5[nH]ccc5c34)CC2)C1	=	0.45

###

TESTED_SYSTEM: Tyk2 (Homo sapiens (Human))
ASSAY_NAME: Enzyme assay (Assay Example^a 1), Tyk2
Type: biochemical
CONDITION_SUMMARY: ATP 100 μM
Just so you know, the groups by IC50 go like this: bin 1: < 0.2 µM; bin 2: ≥ 0.2 µM and < 0.5 µM; bin 3: ≥ 0.5 µM

MOLECULE	ANSWER_LABEL
N#CCC(=O)N(CC(F)(F)F)C[C@H]1CC[C@H](c2nnn3cnc4[nH]ccc4c23)CC1	bin 1
CC1CCCCC1c1nnn2cnc3[nH]ccc3c12 (stereo not shown)	bin 1
CCOC(=O)C=C1CCC(c2nnn3cnc4[nH]ccc4c23)CC1 (stereo not shown)	bin 3
CN(CCO)C[C@H]1CC[C@H](c2nnn3cnc4[nH]ccc4c23)CC1	bin 2
N#Cc1ccc(CCNC[C@H]2CC[C@H](c3nnn4cnc5[nH]ccc5c34)CC2)cc1	bin 1
FC(F)(F)C1(NC[C@H]2CC[C@H](c3nnn4cnc5[nH]ccc5c34)CC2)CC1	bin 2
N#CC(C#N)=C[C@H]1CC[C@H](c2nnn3cnc4[nH]ccc4c23)CC1	bin 2
O[C@H]1CCCC[C@H]1CNC[C@H]1CC[C@H](c2nnn3cnc4[nH]ccc4c23)CC1 (relative stereo)	bin 2
c1cc2c(ncn3nnc(C4CCCCC4)c23)[nH]1	bin 1
CC(C)(O)C1CCN(C[C@H]2CC[C@H](c3nnn4cnc5[nH]ccc5c34)CC2)CC1	bin 3
O=C([C@H]1CC[C@H](c2nnn3cnc4[nH]ccc4c23)CC1)N1CC(O)C1	bin 3
O=C1CN(C[C@H]2CC[C@H](c3nnn4cnc5[nH]ccc5c34)CC2)CCN1	bin 3
CC(C)(C)OC(=O)N1CCC(CNC[C@H]2CC[C@H](c3nnn4cnc5[nH]ccc5c34)CC2)CC1	bin 3
NC(=O)c1ccc(CN2CCC(c3nnn4cnc5[nH]ccc5c34)CC2)cc1	bin 3
NC(=O)C1CCN(C[C@H]2CC[C@H](c3nnn4cnc5[nH]ccc5c34)CC2)CC1	bin 3
CC(C)(C)OC(=O)N1CC(CC#N)(NC[C@H]2CC[C@H](c3nnn4cnc5[nH]ccc5c34)CC2)C1	bin 3
CN(C)[C@@H]1CCN(C[C@H]2CC[C@H](c3nnn4cnc5[nH]ccc5c34)CC2)C1	bin 3
IC[C@H]1CC[C@H](c2nnn3cnc4[nH]ccc4c23)CC1	bin 1
O=C(NCC(F)(F)F)[C@H]1CC[C@H](c2nnn3cnc4[nH]ccc4c23)CC1	bin 1
FC(F)(F)COC1CN(C[C@H]2CC[C@H](c3nnn4cnc5[nH]ccc5c34)CC2)C1	bin 3
N#CCN[C@H]1CC[C@H](c2nnn3cnc4[nH]ccc4c23)CC1 [393b]	bin 2
NC(=O)[C@H]1CC[C@H](c2nnn3cnc4[nH]ccc4c23)CC1	bin 2
Clc1ccc(CN2CCC(c3nnn4cnc5[nH]ccc5c34)CC2)cn1	bin 2
N#CCC(=O)N(CC#N)C[C@H]1CC[C@H](c2nnn3cnc4[nH]ccc4c23)CC1	bin 2
Fc1ccc(NC[C@H]2CC[C@H](c3nnn4cnc5[nH]ccc5c34)CC2)cc1F	bin 3
N#Cc1ccc(CNC(=O)[C@H]2CC[C@H](c3nnn4cnc5[nH]ccc5c34)CC2)cc1	bin 3
FC(F)(F)C(NC[C@H]1CC[C@H](c2nnn3cnc4[nH]ccc4c23)CC1)C(F)(F)F	bin 3
Fc1cc(NC[C@H]2CC[C@H](c3nnn4cnc5[nH]ccc5c34)CC2)cc(F)c1F	bin 3
